Where these numbers come from: ChEMBL document CHEMBL1130153

procedure-details: Inhibition of melanoma cell adhesion to type IV collagen
Assay type: functional, Homo sapiens
Where a SMILES comes first, the peptide text is derived from it. [ ]: non-standard residue; d: D form. pY = N[C@@H](Cc1ccc(OP(=O)(O)O)cc1)C(=O)O
readout-type: IC50 (µM)
Answer in µM, number only, no unit symbol.

query: Look up IC50 for this compound: CC[C@H](C)[C@H](NC(=O)[C@H](CCC(=O)O)NC(=O)[C@@H](N)C(C)C)C(=O)N[C@@H](CC(C)C)C(=O)N[C@@H](Cc1ccc(OP(=O)(O)O)cc1)C(=O)O (H-VEIL[pY]-OH)
result: 10
